src = the supplement of paper PMC10724198

# Tested on: Saccharomyces cerevisiae
# Protocol details: protein stability index of tFT-peptide fusion (C-terminal peptide) (PSI (0-1 scale)); higher = more stable (slower turnover)
# Condition set: genetic background: wild type; temperature: 30 C
Experimental readout: protein stability index
Enter the number alone.

Observe how each entry below is paired with its result.
Sequence chain: KHIDYRHAPGNI [RRN10 C-terminal 12 aa]
protein stability index: 0.696

Sequence chain: AAANILFSDHAD [RAD23 C-terminal 12 aa]
protein stability index: 0.733

Sequence chain: KRDIVFAASLYL [SKI2 C-terminal 12 aa]
protein stability index: 0.739

Sequence chain: IYKEKYMKQGPK [DSF2 C-terminal 12 aa]
protein stability index: 0.701

Sequence chain: NNGSSNNNTQNT [SNF5 C-terminal 12 aa]
protein stability index: 0.673

From here, focus on the item given below.
Prompt: Give protein stability index for GSLLLGLISFLL [EGT2 C-terminal 12 aa]
Completion: 0.649
